# credit: PubChem BioAssay AID1963958

- Tested on: MDA-MB-231 multicell spheroids, viability
- Experiment Summary: Anticancer human tumor MDA-MB-231 cell line growth inhibition [PI3K];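 also: spheroids exposed to agents for seven days before reading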
- Experimental Conditions: second compound 1 µM; first compound 10 µM; active compounds read low
Each entry belongs to exactly one class, chosen by where its viability, T/C falls: low value: < 20%; medium value: ≥ 20% and < 40%; high value: ≥ 40%

{"columns": ["Compound", "Classification"],
 "data": [
  ["C#Cc1c(F)ccc2cc(O)cc(-c3ncc4c(N5CC6CCC(C5)N6)nc(OCC56CCCN5CC(F)C6)nc4c3F)c12 (stereo unspecified) + COc1c(OCCCN2CCOCC2)ccc2c3n(c(=NC(=O)c4cnc(N)nc4)nc12)CCN3", "low value"],
  ["CCCS(=O)(=O)Nc1ccc(F)c(C(=O)c2c[nH]c3ncc(-c4ccc(Cl)cc4)cc23)c1F + Cc1nc(NC(=O)N2CCCC2C(N)=O)sc1-c1ccnc(C(C)(C)C(F)(F)F)c1", "medium value"],
  ["C[C@@H](NC(=O)c1ncnc(N)c1Cl)c1ncc(C(=O)Nc2cc(C(F)(F)F)c(Cl)cn2)s1 + CC(Nc1ncnc2nc[nH]c12)c1cc2cccc(Cl)c2c(=O)n1-c1ccccc1", "high value"],
  ["C[C@@H](NC(=O)c1ncnc(N)c1Cl)c1ncc(C(=O)Nc2cc(C(F)(F)F)c(Cl)cn2)s1 + COc1c(OCCCN2CCOCC2)ccc2c3n(c(=NC(=O)c4cnc(N)nc4)nc12)CCN3", "low value"],
  ["CC(Cn1ccc(-c2ccc(C#N)c(Cl)c2)n1)NC(=O)c1cc(C(C)O)[nH]n1 (stereo unspecified) + CC(Nc1ccc2c(c1)OCCn1cc(N3C(=O)OCC3C(F)F)nc1-2)C(N)=O", "high value"],
  ["CC1(C)CCC(Nc2ncc(C(F)(F)F)c(-c3c[nH]c4c(P(C)(C)=O)c(C#N)ccc34)n2)CN1 (stereo unspecified) + COc1c(OCCCN2CCOCC2)ccc2c3n(c(=NC(=O)c4cnc(N)nc4)nc12)CCN3", "low value"],
  ["CNC(=O)c1ccc(N2C(=S)N(c3ccc(C#N)c(C(F)(F)F)c3)C(=O)C2(C)C)cc1F + Cc1nc(NC(=O)N2CCCC2C(N)=O)sc1-c1ccnc(C(C)(C)C(F)(F)F)c1", "high value"],
  ["CC(Cn1ccc(-c2ccc(C#N)c(Cl)c2)n1)NC(=O)c1cc(C(C)O)[nH]n1 (stereo unspecified) + COc1c(OCCCN2CCOCC2)ccc2c3n(c(=NC(=O)c4cnc(N)nc4)nc12)CCN3", "medium value"],
  ["CCCS(=O)(=O)Nc1ccc(F)c(C(=O)c2c[nH]c3ncc(-c4ccc(Cl)cc4)cc23)c1F + CC(Nc1ccc2c(c1)OCCn1cc(N3C(=O)OCC3C(F)F)nc1-2)C(N)=O", "medium value"]
]}
